tgt: HPK1 (Homo sapiens (Human))
method: HPK1 degradation assay (western blot, human PBMC)
Format: cell-based
condition.label: protein degradation, human PBMC; read-out: HPK1 DC50
assay.readout: DC50 (nM)

Example compounds with recorded DC50:
• O=C1CCC(N2C(=O)c3cc(F)c(N4CCC(CCN5CCCN(c6cccc(-c7cnc8[nH]cc(C9CC9)c8c7Cl)c6)C5=O)CC4)cc3C2=O)C(=O)N1 (stereo not shown) = 294
• CCc1c[nH]c2ncc(-c3cccc(N4CCCN(CC5CCN(c6ccc(NC7CCC(=O)NC7=O)cc6F)CC5)C4=O)c3)c(Cl)c12 (stereo not shown) = 6

(1) CCc1c[nH]c2ncc(-c3cccc(N4CCCN(CCN5CCN(c6ccc(NC7CCC(=O)NC7=O)cc6F)CC5)C4=O)c3)c(Cl)c12 (stereo not shown)
(2) CCc1c[nH]c2ncc(-c3cccc(N4CCCN(CCN5CC(c6ccc7c(c6)C(=O)N(C6CCC(=O)NC6=O)C7)C5)C4=O)c3)c(Cl)c12 (stereo not shown)
## Input In terms of reported DC50, does 1 or 2 have the smaller number? Respond with the label that goes with your answer.
## Output 1
(1: 1 nM, 2: 173 nM)

====

tgt: UniProt:Q92918
method: HPK1 degradation assay (western blot, human PBMC)
Format: cell-based
condition.label: protein degradation, human PBMC; read-out: HPK1 Dmax
assay.readout: Dmax (%)

Example molecules with recorded Dmax:
- CCc1c[nH]c2ncc(-c3cccc(N4CCCN(CCN5CCN(c6ccc(C7CCC(=O)NC7=O)cc6)CC5)C4=O)c3)c(Cl)c12 (centres unmarked) [Example 17]: 91
- CCc1c[nH]c2ncc(-c3cccc(N4CCCN(CCN5CC(c6ccc7c(c6)C(=O)N(C6CCC(=O)NC6=O)C7)C5)C4=O)c3)c(Cl)c12 (centres unmarked) [Example 1]: 75
- O=C1CCC(N2Cc3ccc(N4CCC(CN5CCCN(c6cccc(-c7cnc8[nH]cc(CC(F)F)c8c7Cl)c6)C5=O)CC4)cc3C2=O)C(=O)N1 (centres unmarked) [Example 13]: 50

(a) O=C1CCC(N2Cc3cc(N4CCC(CN5CCCN(c6cccc(-c7cnc8[nH]cc(CC(F)F)c8c7Cl)c6)C5=O)CC4)ccc3C2=O)C(=O)N1 (centres unmarked) [Example 14]
(b) CCc1c[nH]c2ncc(-c3cccc(N4CCCN(CCN5CCN(c6ccc(NC7CCC(=O)NC7=O)cc6F)CC5)C4=O)c3)c(Cl)c12 (centres unmarked) [Example 18]
## Input In terms of reported Dmax, does a or b have the smaller number? Respond with the label that goes with your answer.
## Output b
(b: 52%, a: 90%)

====

Below is a list of entries, each paired with its recorded IC50 value.
tgt: UniProt:O14965
Provide the reading as a plain figure in nM.

Example compounds with recorded IC50:
• CCc1c[nH]c2ncc(-c3cccc(N4CCCN(CCC5CCN(c6ccc(NC7CCC(=O)NC7=O)cc6F)CC5)C4=O)c3)c(Cl)c12 (centres unmarked) = 40.8
• CCc1c[nH]c2ncc(-c3cccc(N4CCCN(CCN5CCN(c6cc7c(cc6F)C(=O)N(C6CCC(=O)NC6=O)C7)CC5)C4=O)c3)c(Cl)c12 (centres unmarked) = 10.6

Log: UniProt:O14965, compound O=C1CCC(N2Cc3ccc(N4CCC(CN5CCCN(c6cccc(-c7cnc8[nH]cc(CC(F)F)c8c7Cl)c6)C5=O)CC4)cc3C2=O)C(=O)N1 (centres unmarked) , IC50 = 14.3

Log: UniProt:O14965, compound CCc1c[nH]c2ncc(-c3cccc(N4CCCN(CC5CCN(c6ccc7c(c6)C(=O)N(C6CCC(=O)N(C)C6=O)C7=O)CC5)C4=O)c3)c(Cl)c12 (centres unmarked) , IC50 = 34.8

Log: UniProt:O14965, compound CCc1c[nH]c2ncc(-c3cccc(N4CCCN(CC5CCN(c6ccc(NC7CCC(=O)NC7=O)cc6F)CC5)C4=O)c3)c(Cl)c12 (centres unmarked) , IC50 = 19.9

====

tgt: Aurora A (Homo sapiens (Human))
Sequence (O14965 whole entry): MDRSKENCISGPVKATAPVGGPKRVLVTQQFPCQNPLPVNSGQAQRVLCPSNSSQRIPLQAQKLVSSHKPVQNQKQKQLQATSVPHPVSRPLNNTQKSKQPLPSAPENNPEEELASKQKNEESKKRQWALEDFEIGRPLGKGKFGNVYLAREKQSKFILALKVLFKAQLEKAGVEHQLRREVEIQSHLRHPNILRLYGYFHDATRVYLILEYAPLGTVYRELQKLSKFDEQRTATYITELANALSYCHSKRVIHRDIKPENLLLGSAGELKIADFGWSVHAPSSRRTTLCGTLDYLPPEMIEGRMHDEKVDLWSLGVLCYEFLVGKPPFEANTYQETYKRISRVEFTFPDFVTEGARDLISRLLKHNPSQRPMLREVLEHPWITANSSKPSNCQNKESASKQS
method: Aurora A degradation assay (western blot)
Assay type: cell-based
condition.label: protein degradation, IMR32, Huh7 or HL-60 cells; read-out: Aurora A DC50
assay.readout: DC50 (nM)
Provide the reading as a plain figure in nM.

Example compounds with recorded DC50:
* CCc1c[nH]c2ncc(-c3cccc(N4CCCN(CCN5CCN(c6ccc(C7CCC(=O)NC7=O)cc6)CC5)C4=O)c3)c(Cl)c12 (stereo not shown) [Example 17] | 1
* CCc1c[nH]c2ncc(-c3cccc(N4CCCN(CC5CCN(c6ccc(NC7CCC(=O)NC7=O)cc6F)CC5)C4=O)c3)c(Cl)c12 (stereo not shown) [Example 15] | 9.6

Now consider a different compound.
Record summary for CCc1c[nH]c2ncc(-c3cccc(N4CCCN(CCC5CCN(c6ccc(NC7CCC(=O)NC7=O)cc6F)CC5)C4=O)c3)c(Cl)c12 (stereo not shown) [Example 16] : reported DC50 = 4.6

====

tgt: FLT3-ITD (Homo sapiens, UniProt P36888, ITD)
Sequence (P36888 whole entry, looked up, change not shown): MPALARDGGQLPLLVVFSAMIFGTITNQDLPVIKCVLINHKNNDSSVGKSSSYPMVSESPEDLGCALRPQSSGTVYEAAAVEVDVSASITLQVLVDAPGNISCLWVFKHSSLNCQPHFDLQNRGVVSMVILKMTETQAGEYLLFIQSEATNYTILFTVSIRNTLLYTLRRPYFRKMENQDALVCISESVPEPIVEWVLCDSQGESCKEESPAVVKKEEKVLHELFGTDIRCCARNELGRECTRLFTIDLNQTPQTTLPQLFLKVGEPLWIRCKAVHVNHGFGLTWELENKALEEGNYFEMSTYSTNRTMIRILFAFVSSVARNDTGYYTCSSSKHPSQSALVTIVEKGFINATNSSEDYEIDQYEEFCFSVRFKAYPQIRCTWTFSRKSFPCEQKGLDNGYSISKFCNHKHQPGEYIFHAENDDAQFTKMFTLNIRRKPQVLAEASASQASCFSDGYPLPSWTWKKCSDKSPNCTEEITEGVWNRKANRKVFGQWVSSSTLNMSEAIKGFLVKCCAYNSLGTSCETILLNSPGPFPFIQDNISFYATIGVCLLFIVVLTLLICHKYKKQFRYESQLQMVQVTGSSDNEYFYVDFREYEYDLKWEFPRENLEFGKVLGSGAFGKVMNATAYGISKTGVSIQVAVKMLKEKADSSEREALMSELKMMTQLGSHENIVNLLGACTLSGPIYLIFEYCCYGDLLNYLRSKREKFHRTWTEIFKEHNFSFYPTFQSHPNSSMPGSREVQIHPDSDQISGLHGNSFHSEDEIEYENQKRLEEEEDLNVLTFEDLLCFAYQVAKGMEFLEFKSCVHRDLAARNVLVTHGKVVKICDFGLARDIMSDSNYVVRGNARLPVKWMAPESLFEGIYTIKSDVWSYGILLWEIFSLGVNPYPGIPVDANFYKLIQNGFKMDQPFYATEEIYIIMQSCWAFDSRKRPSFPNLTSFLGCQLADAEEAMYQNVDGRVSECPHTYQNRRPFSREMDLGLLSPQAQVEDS
method: FLT3-ITD enzyme inhibition assay
Type: biochemical
condition.label: enzyme inhibition; read-out: FLT3-ITD IC50
assay.readout: IC50 (nM)

- O=C1CCC(N2Cc3ccc(N4CCC(CN5CCCN(c6cccc(-c7cnc8[nH]cc(C9CC9)c8c7Cl)c6)C5=O)CC4)cc3C2=O)C(=O)N1 (stereo not drawn): 20.8
- CCc1c[nH]c2ncc(-c3cccc(N4CCCN(CCN5CCN(c6ccc7c(N8CCC(=O)NC8=O)cccc7c6)CC5)C4=O)c3)c(Cl)c12: 24
- CCc1c[nH]c2ncc(-c3cccc(N4CCCN(CCN5CCN(c6ccc(C7CCC(=O)NC7=O)cc6)CC5)C4=O)c3)c(Cl)c12 (stereo not drawn): 17.4
- CCc1c[nH]c2ncc(-c3cccc(N4CCCN(CC5CCN(c6ccc7c(c6)C(=O)N(C6CCC(=O)N(C)C6=O)C7=O)CC5)C4=O)c3)c(Cl)c12 (stereo not drawn): 7.4

(A) CCc1c[nH]c2ncc(-c3cccc(N4CCCN(CCN5CCC(c6ccc7c(c6)C(=O)N(C6CCC(=O)NC6=O)C7=O)CC5)C4=O)c3)c(Cl)c12 (stereo not drawn)
(B) O=C1CCC(N2Cc3ccc(N4CCC(CN5CCCN(c6cccc(-c7cnc8[nH]cc(CC(F)F)c8c7Cl)c6)C5=O)CC4)cc3C2=O)C(=O)N1 (stereo not drawn)
## Input // compare measured IC50, left A , right B , return larger Respond with the label that goes with your answer.
## Output B

====

tgt: HPK1 (Homo sapiens (Human), UniProt Q92918)
Sequence (Q92918 whole entry): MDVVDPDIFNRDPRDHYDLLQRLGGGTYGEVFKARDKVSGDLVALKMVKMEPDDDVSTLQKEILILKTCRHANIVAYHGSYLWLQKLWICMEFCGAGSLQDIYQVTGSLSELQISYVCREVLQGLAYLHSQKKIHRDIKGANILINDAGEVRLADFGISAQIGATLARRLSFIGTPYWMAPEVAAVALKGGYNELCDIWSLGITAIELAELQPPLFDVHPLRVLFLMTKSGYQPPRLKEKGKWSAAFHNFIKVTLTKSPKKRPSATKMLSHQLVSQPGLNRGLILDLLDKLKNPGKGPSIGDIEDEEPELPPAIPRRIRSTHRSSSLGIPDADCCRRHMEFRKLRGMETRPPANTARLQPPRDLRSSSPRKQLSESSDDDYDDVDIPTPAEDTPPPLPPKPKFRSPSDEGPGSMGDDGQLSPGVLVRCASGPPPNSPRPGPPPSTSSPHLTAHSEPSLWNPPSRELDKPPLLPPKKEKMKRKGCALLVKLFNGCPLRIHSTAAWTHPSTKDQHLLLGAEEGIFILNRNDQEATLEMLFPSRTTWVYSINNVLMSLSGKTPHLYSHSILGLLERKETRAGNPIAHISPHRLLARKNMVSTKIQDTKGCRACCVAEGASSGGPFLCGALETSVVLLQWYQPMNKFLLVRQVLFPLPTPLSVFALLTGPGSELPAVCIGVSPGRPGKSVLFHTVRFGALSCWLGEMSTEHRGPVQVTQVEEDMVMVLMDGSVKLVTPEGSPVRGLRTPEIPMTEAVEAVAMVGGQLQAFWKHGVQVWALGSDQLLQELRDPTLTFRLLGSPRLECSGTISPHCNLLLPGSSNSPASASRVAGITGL
method: HPK1 degradation assay (western blot, human PBMC)
Assay type: cell-based
condition.label: protein degradation, human PBMC; read-out: HPK1 DC50
assay.readout: DC50 (nM)

Example molecules with recorded DC50:
* CCc1c[nH]c2ncc(-c3cccc(N4CCCN(CC5CCN(c6ccc7c(c6)C(=O)N(C6CCC(=O)NC6=O)C7=O)CC5)C4=O)c3)c(Cl)c12 (stereo not drawn) [Example 8] | 85
* CCc1c[nH]c2ncc(-c3cccc(N4CCCN(CCC5CCN(c6ccc(NC7CCC(=O)NC7=O)cc6F)CC5)C4=O)c3)c(Cl)c12 (stereo not drawn) [Example 16] | 100
* CCc1c[nH]c2ncc(-c3cccc(N4CCCN(CCN5CCN(c6cc7c(cc6F)C(=O)N(C6CCC(=O)NC6=O)C7)CC5)C4=O)c3)c(Cl)c12 (stereo not drawn) [Example 7] | 12

(I) O=C1CCC(N2Cc3cc(N4CCC(CN5CCCN(c6cccc(-c7cnc8[nH]cc(CC(F)F)c8c7Cl)c6)C5=O)CC4)ccc3C2=O)C(=O)N1 (stereo not drawn) [Example 14]
(II) O=C1CCC(N2Cc3ccc(N4CCC(CN5CCCN(c6cccc(-c7cnc8[nH]cc(CC(F)F)c8c7Cl)c6)C5=O)CC4)cc3C2=O)C(=O)N1 (stereo not drawn) [Example 13]
(III) CCc1c[nH]c2ncc(-c3cccc(N4CCCN(CCN5CCN(c6ccc(C7CCC(=O)NC7=O)cc6)CC5)C4=O)c3)c(Cl)c12 (stereo not drawn) [Example 17]
## Input Please produce an ascending ranking of these molecules based on DC50. Answer format: the labels, in the requested order.
## Output III, II, I
(III: 2.3 nM, II: 11 nM, I: 100 nM)

====

tgt: UniProt O14965
method: Aurora A degradation assay (western blot)
Format: cell-based
condition.label: protein degradation, IMR32, Huh7 or HL-60 cells; read-out: Aurora A Dmax
assay.readout: Dmax (%)

* O=C1CCC(N2Cc3cc(N4CCC(CN5CCCN(c6cccc(-c7cnc8[nH]cc(CC(F)F)c8c7Cl)c6)C5=O)CC4)ccc3C2=O)C(=O)N1 (centres unmarked) [Example 14] | 95
* O=C1CCC(N2Cc3ccc(N4CCC(CN5CCCN(c6cccc(-c7cnc8[nH]cc(CC(F)F)c8c7Cl)c6)C5=O)CC4)cc3C2=O)C(=O)N1 (centres unmarked) [Example 13] | 70
* O=C1CCC(N2Cc3ccc(N4CCC(CN5CCCN(c6cccc(-c7cnc8[nH]cc(C9CC9)c8c7Cl)c6)C5=O)CC4)cc3C2=O)C(=O)N1 (centres unmarked) [Example 11] | 50

(a) CCc1c[nH]c2ncc(-c3cccc(N4CCCN(CCN5CCN(c6ccc(NC7CCC(=O)NC7=O)cc6F)CC5)C4=O)c3)c(Cl)c12 (centres unmarked) [Example 18]
(b) CCc1c[nH]c2ncc(-c3cccc(N4CCCN(CCN5CCN(c6ccc(C7CCC(=O)NC7=O)cc6)CC5)C4=O)c3)c(Cl)c12 (centres unmarked) [Example 17]
## Input In terms of reported Dmax, does a or b have the smaller number? Respond with the label that goes with your answer.
## Output b
